Each entry below carries its recorded viability increase.
- Protocol: doxorubicin toxicity protection in MRP-1 cells – H69AR cells, CellTiter-Glo, duplicate, MRP-1 activator project, pilot screen (AID 807);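 further: compound pretreatment 18-22 h then 72 h combined with doxorubicin; 0% = doxorubicin alone and 100% = vehicle without doxorubicin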
- Condition Label: H69AR viability with doxorubicin, CellTiter-Glo luminescence; at 10 µM; hits give high values
Measured Property: viability increase (%)

| Molecule | Test Value |
| --- | --- |
| O=C(CCn1[nH]c(=O)c2ccccc2c1=O)NCCO | -0.03 |
| CC1CCCCN1C(=O)c1ccc(S(=O)(=O)N2CCCCC2C)cc1 (stereo unspecified) | -2.45 |
| CC(C)c1ccc(NC(=O)CCNS(=O)(=O)c2cccc3nonc23)cc1 | -1.42 |
| COc1cccc2cc(C(=O)N3CCC(C)CC3)c(=O)oc12 | -0.12 |
| COc1ccccc1NC(=O)N1CCN(c2cccc(C(F)(F)F)c2)CC1 | 2.13 |
| Cc1c(Cl)cccc1NC(=O)CCN1CCCCC1 | -1.01 |
| CCN1CCN(C(=O)c2oc(=O)c3ccccc3c2-c2ccc(C)cc2)CC1 | -3.04 |
| O=C1C/C(=C/NCc2ccccc2)C(=O)N1 | 0.43 |
| CCn1cc(C(=O)N2CCOCC2)c(=O)c2cc(S(=O)(=O)N(C)C3CCCCC3)ccc21 | -1.73 |
| O=C(Nc1nc2ccc(Cl)cc2s1)c1ccc(Br)o1 | -2.25 |
| Cc1ccc(N(C)C(=O)N2CCN(c3ccccn3)CC2)cc1 | -1.03 |
